# system_tested: T1, purified human IgE (Abcam) (human, UniProt P01854-1 1-428)
# T1 construct: also called free IgE; secreted IgE
# assay_details: not told
Assign TRUE whenever fold affinity reduction over wild type does not fall below 7 fold; assign FALSE whenever it does.

1) FcεRIα extracellular domain mutant Y131A (receptor) VPQKPKVSLNPPWNRIFKGENVTLTCNGNNFFEVSSTKWFHNGSLSEETNSSLNIVNAKFEDSGEYKCQHQQVNESEPVYLEVFSDWLLLQASAEVVMEGQPLFLRCHGWRNWDVYKVIYYKDGEALKYWAENHNISITNATVEDSGTYYCTGKVWQLDYESEPLNITVIKAPREKYWLQ : FALSE
2) FcεRIα extracellular domain mutant K117D (receptor) VPQKPKVSLNPPWNRIFKGENVTLTCNGNNFFEVSSTKWFHNGSLSEETNSSLNIVNAKFEDSGEYKCQHQQVNESEPVYLEVFSDWLLLQASAEVVMEGQPLFLRCHGWRNWDVYDVIYYKDGEALKYWYENHNISITNATVEDSGTYYCTGKVWQLDYESEPLNITVIKAPREKYWLQ : TRUE
3) FcεRIα extracellular domain mutant D159A (receptor) VPQKPKVSLNPPWNRIFKGENVTLTCNGNNFFEVSSTKWFHNGSLSEETNSSLNIVNAKFEDSGEYKCQHQQVNESEPVYLEVFSDWLLLQASAEVVMEGQPLFLRCHGWRNWDVYKVIYYKDGEALKYWYENHNISITNATVEDSGTYYCTGKVWQLAYESEPLNITVIKAPREKYWLQ : FALSE
4) FcεRIα extracellular domain mutant W113A (receptor) VPQKPKVSLNPPWNRIFKGENVTLTCNGNNFFEVSSTKWFHNGSLSEETNSSLNIVNAKFEDSGEYKCQHQQVNESEPVYLEVFSDWLLLQASAEVVMEGQPLFLRCHGWRNADVYKVIYYKDGEALKYWYENHNISITNATVEDSGTYYCTGKVWQLDYESEPLNITVIKAPREKYWLQ : FALSE
5) FcεRIα extracellular domain mutant V155A (receptor) VPQKPKVSLNPPWNRIFKGENVTLTCNGNNFFEVSSTKWFHNGSLSEETNSSLNIVNAKFEDSGEYKCQHQQVNESEPVYLEVFSDWLLLQASAEVVMEGQPLFLRCHGWRNWDVYKVIYYKDGEALKYWYENHNISITNATVEDSGTYYCTGKAWQLDYESEPLNITVIKAPREKYWLQ : TRUE
